- Procedure Text: Pharmacokinetic assessment: plasma concentrations by liquid chromatography tandem mass spectrometry after ticagrelor loading dose
- Type: in vivo, human (patients with myocardial infarction)
- Condition Context: both sexes, human, plasma, po, 180 mg, STEMI patients (n = 49); oral 180 mg ticagrelor LD; plasma; median [interquartile range]; read-out: AUC(0–6)
Property: AUC(0-t)
I'd appreciate it if you included the unit after the number.

Prompt: Returns the measured AUC(0-t) for the input molecule. Input: CCCSc1nc(N[C@@H]2C[C@H]2c2ccc(F)c(F)c2)c2nnn([C@@H]3C[C@H](OCCO)[C@@H](O)[C@H]3O)c2n1 [ticagrelor]
Completion: 2490 ng·h/mL

====

- Procedure Text: Pharmacokinetic assessment: plasma concentrations by liquid chromatography tandem mass spectrometry after ticagrelor loading dose
- Format: in vivo, human (patients with myocardial infarction)
- Condition Context: both sexes, human, plasma, oral, 180 mg, internal pilot study, first 30 patients with STEMI; mean and SD; read-out: AUC(0–6)
Property: AUC(0-t)

Prompt: Look up AUC(0-t): CCCSc1nc(N[C@@H]2C[C@H]2c2ccc(F)c(F)c2)c2nnn([C@@H]3C[C@H](OCCO)[C@@H](O)[C@H]3O)c2n1 [ticagrelor]
Completion: 2380 ng·h/mL

====

- Procedure Text: Pharmacokinetic assessment: plasma concentrations by liquid chromatography tandem mass spectrometry after ticagrelor loading dose
- Assay type: in vivo, human (patients with myocardial infarction)
- Condition Context: both sexes, human, oral, 180 mg, internal pilot study, first 15 patients with NSTEMI, mean and SD, read-out: AUC(0–6)
Property: AUC(0-t) (ng·h/mL)
Give the number; ng·h/mL is assumed, so skip it.

Prompt: AUC(0-t) for CCCSc1nc(N[C@@H]2C[C@H]2c2ccc(F)c(F)c2)c2nnn([C@@H]3C[C@H](OCCO)[C@@H](O)[C@H]3O)c2n1 ?
Completion: 6410

====

- Procedure Text: Pharmacokinetic assessment: plasma concentrations by liquid chromatography tandem mass spectrometry after ticagrelor loading dose
- Format: in vivo, human (patients with myocardial infarction)
- Condition Context: both sexes, human, plasma, po, 180 mg, NSTEMI patients; oral 180 mg ticagrelor LD; plasma; median [interquartile range]; read-out: AUC(0–12)
Property: AUC(0-t) (ng·h/mL)
The response must be a number in ng·h/mL with no trailing unit.

Prompt: Consider the compound CCCSc1nc(N[C@@H]2C[C@H]2c2ccc(F)c(F)c2)c2nnn([C@@H]3C[C@H](OCCO)[C@@H](O)[C@H]3O)c2n1 [ticagrelor] and give its measured AUC(0-t).
Completion: 8600

====

- Procedure Text: Pharmacokinetic assessment: plasma concentrations by liquid chromatography tandem mass spectrometry after ticagrelor loading dose
- Format: in vivo, human (patients with myocardial infarction)
- Condition Context: both sexes, human, plasma, po, 180 mg, NSTEMI patients; oral 180 mg ticagrelor LD; 0 to 12 hours; median [interquartile range]
Property: Cmax (ng/mL)
Please state the figure in ng/mL; there is no need to write the unit.

Prompt: Find the recorded Cmax belonging to CCCSc1nc(N[C@@H]2C[C@H]2c2ccc(F)c(F)c2)c2nnn([C@@H]3C[C@H](OCCO)[C@@H](O)[C@H]3O)c2n1 [ticagrelor] and report it.
Completion: 1160

====

- Procedure Text: Pharmacokinetic assessment: plasma concentrations by liquid chromatography tandem mass spectrometry after ticagrelor loading dose
- Format: in vivo, human (patients with myocardial infarction)
- Condition Context: both sexes, human, plasma, oral, 180 mg, NSTEMI patients without morphine (first value of the pair); post hoc analysis; median [interquartile range]
Property: Tmax
Express your answer as a number followed by its unit.

Prompt: Please give the measured Tmax for this compound: CCCSc1nc(N[C@@H]2C[C@H]2c2ccc(F)c(F)c2)c2nnn([C@@H]3C[C@H](OCCO)[C@@H](O)[C@H]3O)c2n1 [ticagrelor]
Completion: 1 h
